From: paper PMC2903445

Biological target: Gαi1 (N-terminal-truncated, hexahistidine-tagged human Gαi1), wild type (human, UniProt P63096 26-354)
Sequence (P63096 26-354): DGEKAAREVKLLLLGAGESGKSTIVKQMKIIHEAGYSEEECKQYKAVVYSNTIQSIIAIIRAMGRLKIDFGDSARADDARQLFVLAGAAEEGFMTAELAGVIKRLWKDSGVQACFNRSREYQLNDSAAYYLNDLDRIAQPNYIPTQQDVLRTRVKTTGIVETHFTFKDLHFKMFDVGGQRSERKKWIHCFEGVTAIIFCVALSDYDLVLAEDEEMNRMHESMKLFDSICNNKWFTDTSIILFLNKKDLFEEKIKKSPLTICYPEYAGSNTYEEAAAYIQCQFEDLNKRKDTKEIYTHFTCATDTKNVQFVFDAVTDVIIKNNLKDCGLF
Experiment: fluorescence polarisation
Ends that are not written are not given here.
Parameter measured: Kd (nM)
Supply the numeric figure in nM, leaving out any unit text.

For DIEGLVELLNRVQSSGAHDQRGLLRKEDLVLPEFLQ (domain or fragment, UniProt O08773 496-531, looked up, also: 6-IAF fluorescein on the unique Cys (not in given chain)) [GoLoco motif of RGS14 (residues 496-531) expressed as a fusion to Tenascin, wild type] , what is its reported Kd?
100
